Entry source: patent US20260242478A1

target: T1, Anti-PSMA Fab (SEQ ID NOs: 19, 20); experiment: phage binding ELISA on captured PSMA Fab pre-incubated with PSMA antigen as competitor, anti-M13 HRP detection
T1 construct: Biotinylated PSMA Fab captured on neutravidin coated plates in the phage ELISA; also called 006 PSMA Fab
Label Not met if Anti-PSMA Fab signal in the presence of PSMA falls below 0.1; label Met in every other case.

Please review the entries below; each comes with its answer.
{"binder": "SFAWCIPPWMCEIT [Phage-1915]", "label-value": "Met"}
{"binder": "EKIWCVPAWMCTWL [Phage-1918]", "label-value": "Met"}
{"binder": "VIKWCTPAWMCTAL [Phage-1914]", "label-value": "Not met"}

Query block: Reported Anti-PSMA Fab signal in the presence of PSMA at or above 0.1? VSKLCIPMWMCETS [Phage-1919]
Result block: Not met

Query block: Given the entry GDPWCIPAWMCMEF [Phage-1911] , answer whether its Anti-PSMA Fab signal in the presence of PSMA meets or surpasses 0.1.
Result block: Not met

Query block: Is it the case that GDILCRPEWMCTGF [Phage-1910] has Anti-PSMA Fab signal in the presence of PSMA reaching or exceeding 0.1?
Result block: Met

Query block: Check if Anti-PSMA Fab signal in the presence of PSMA >= 0.1 (inclusive). Item: VMKWCIPEWMCYML [Phage-1906]
Result block: Met

Query block: Given the entry ESIRCIPLWMCEGF [Phage-1913] , answer whether its Anti-PSMA Fab signal in the presence of PSMA meets or surpasses 0.1.
Result block: Not met

Query block: Please indicate if the recorded Anti-PSMA Fab signal in the presence of PSMA for GEYWCIPSWMCQLY [Phage-1920] meets or exceeds 0.1.
Result block: Met
